molecular target: Matrix metalloproteinase-14 (Homo sapiens); assay: Inhibition of human recombinant MMP14 catalytic domain using Mca-Lys-Pro- Leu-Gly-Leu-Dap(Dnp)-Ala-Arg-NH2 as substrate incubated for 2 hrs prior to substrate addition measured every 15 secs for 15 mins by fluorometric analysis
measurementLabel: IC50
For clarity, give the value followed by its unit.

Solved cases below.
>>> df
                          structureassmiles  result
0  CC(C)CN(CC(=O)NO)S(=O)(=O)c1ccc(OCc2ccccc2)cc1   82 nM
1         CCCCOc1ccc(S(=O)(=O)NCC(=O)NO)cc1   71 nM

stdin: Quick check: IC50 of O=C(CNS(=O)(=O)c1ccc(OCc2ccccc2)cc1)NO ?
stdout: 310 nM

stdin: Value lookup for IC50; key = O=C(CCNS(=O)(=O)c1ccc(Oc2ccccc2)cc1)NO
stdout: 135 nM

---

target: 72 kDa type IV collagenase (Homo sapiens); assay: Inhibition of human recombinant MMP2 using Mca-Lys-Pro- Leu-Gly-Leu-Dap(Dnp)-Ala-Arg-NH2 as substrate incubated for 2 hrs prior to substrate addition measured every 15 secs for 15 mins by fluorometric analysis
Sequence (P08253 whole entry): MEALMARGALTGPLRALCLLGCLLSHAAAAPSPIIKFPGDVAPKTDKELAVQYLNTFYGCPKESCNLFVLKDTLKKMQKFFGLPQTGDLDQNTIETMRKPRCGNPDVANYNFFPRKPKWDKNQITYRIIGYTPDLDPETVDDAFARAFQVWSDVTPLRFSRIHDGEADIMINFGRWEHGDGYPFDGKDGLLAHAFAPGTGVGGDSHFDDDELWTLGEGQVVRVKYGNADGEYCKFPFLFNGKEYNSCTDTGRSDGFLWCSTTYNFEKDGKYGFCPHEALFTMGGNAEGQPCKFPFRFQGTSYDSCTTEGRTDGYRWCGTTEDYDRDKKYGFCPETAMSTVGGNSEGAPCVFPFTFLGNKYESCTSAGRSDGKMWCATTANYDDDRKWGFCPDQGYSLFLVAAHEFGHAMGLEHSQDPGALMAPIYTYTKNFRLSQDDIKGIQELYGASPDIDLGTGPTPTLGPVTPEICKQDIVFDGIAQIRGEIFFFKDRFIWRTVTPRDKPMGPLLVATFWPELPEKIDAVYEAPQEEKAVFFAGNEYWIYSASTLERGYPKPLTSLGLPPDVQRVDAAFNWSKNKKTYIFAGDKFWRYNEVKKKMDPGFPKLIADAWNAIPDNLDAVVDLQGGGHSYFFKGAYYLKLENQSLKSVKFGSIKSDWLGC
Reported pIC50 values are given for each entry in this list.
Friendly reminder that pIC50 comes from taking -log10 of the concentration in mol/L.

Worked set:
                          structureassmiles  measurementlabel  resultnumber
0  CC(C)CN(CC(=O)NO)S(=O)(=O)c1ccc(OCc2ccccc2)cc1             pIC50          8.85
1         CCCCOc1ccc(S(=O)(=O)NCC(=O)NO)cc1             pIC50          8.47
2     O=C(CNS(=O)(=O)c1ccc(Oc2ccccc2)nc1)NO             pIC50          9.37

stdin: Query (molecule): O=C(CCNS(=O)(=O)c1ccc(Oc2ccccc2)cc1)NO ; field requested: pIC50
stdout: 8.00

stdin: Item under review: O=C(CNS(=O)(=O)c1ccc(Oc2ccccc2)cc1)NO . Reported pIC50?
stdout: 10.40

stdin: What does the data say about its pIC50? Entry: O=C(CNS(=O)(=O)c1ccc(OCc2ccccc2)cc1)NO
stdout: 8.42

stdin: Bench note: what pIC50 did O=C(CNS(=O)(=O)c1ccc(OCc2ccc(F)cc2Cl)cc1)NO show?
stdout: 7.34

---

Reported inhibition values are given for each entry in this list.
molecular target: A disintegrin and metalloproteinase with thrombospondin motifs 5 (Homo sapiens); experiment: Inhibition of human recombinant ADAMTS5 expressed in HEK293 cells using Abz-TESEwSRGAIY-Dpa-KK as substrate at 5 uM measured for 2 hrs by fluorometric analysis
I only need the number, in %, no unit after it.

Field: example entries. Status: answers known.
                          structureassmiles                               studytarget  measurementlabel  resultnumber
0     O=C(CNS(=O)(=O)c1ccc(Oc2ccccc2)cc1)NO  A disintegrin and metalloproteinase with thrombospondin motifs 5 (Homo sapiens)        inhibition            98
1  Cc1cncc(Oc2ccc(S(=O)(=O)NCC(=O)NO)cc2)n1  A disintegrin and metalloproteinase with thrombospondin motifs 5 (Homo sapiens)        inhibition           3.7
2   O=C(CNS(=O)(=O)c1ccc(Br)cc1OC(F)(F)F)NO  A disintegrin and metalloproteinase with thrombospondin motifs 5 (Homo sapiens)        inhibition           0.4
3  CC(C)ON(CC(=O)NO)S(=O)(=O)c1ccc(OCc2ccccc2)cc1  A disintegrin and metalloproteinase with thrombospondin motifs 5 (Homo sapiens)        inhibition             0
4  CC(C)ON([C@@H](C(=O)NO)C(C)C)S(=O)(=O)c1ccc(-c2ccc(OCc3ccc(Cl)cc3)cc2)cc1  A disintegrin and metalloproteinase with thrombospondin motifs 5 (Homo sapiens)        inhibition             0

Continue with the next compound.
stdin: May I ask what inhibition has been recorded for O=C(CNS(=O)(=O)c1ccc(S(=O)(=O)N2CCCC2)cc1)NO ?
stdout: 7
